test system: FXR:RXRa (NR concentration 270 nM, RXRa partner concentration 90 nM); test: PBM binding z-score (relative to random genomic background probes); higher = stronger binding; sequences stand for … in GC…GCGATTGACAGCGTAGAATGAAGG
Everything with PBM binding z-score lower than 1 is -1; everything else, including exactly 1, is 1.

Textbook exercise: given the entry `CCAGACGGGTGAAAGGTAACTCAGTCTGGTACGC` , state whether its PBM binding z-score is greater than or equal to 1.
-1

Textbook exercise: given the entry `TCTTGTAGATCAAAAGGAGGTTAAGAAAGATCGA` , state whether its PBM binding z-score is greater than or equal to 1.
-1

Textbook exercise: given the entry `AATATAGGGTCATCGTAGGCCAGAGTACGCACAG` , state whether its PBM binding z-score is greater than or equal to 1.
1

Textbook exercise: given the entry `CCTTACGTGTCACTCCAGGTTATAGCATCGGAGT` , state whether its PBM binding z-score is greater than or equal to 1.
1

Textbook exercise: given the entry `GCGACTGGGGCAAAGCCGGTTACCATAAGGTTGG` , state whether its PBM binding z-score is greater than or equal to 1.
-1

Textbook exercise: given the entry `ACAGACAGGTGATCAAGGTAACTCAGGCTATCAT` , state whether its PBM binding z-score is greater than or equal to 1.
-1

Textbook exercise: given the entry `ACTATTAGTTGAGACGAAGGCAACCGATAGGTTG` , state whether its PBM binding z-score is greater than or equal to 1.
-1

Textbook exercise: given the entry `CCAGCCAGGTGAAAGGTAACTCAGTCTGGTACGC` , state whether its PBM binding z-score is greater than or equal to 1.
-1

Textbook exercise: given the entry `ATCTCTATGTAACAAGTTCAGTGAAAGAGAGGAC` , state whether its PBM binding z-score is greater than or equal to 1.
-1

Textbook exercise: given the entry `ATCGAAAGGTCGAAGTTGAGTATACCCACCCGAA` , state whether its PBM binding z-score is greater than or equal to 1.
1

Textbook exercise: given the entry `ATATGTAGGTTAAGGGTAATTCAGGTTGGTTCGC` , state whether its PBM binding z-score is greater than or equal to 1.
1

Textbook exercise: given the entry `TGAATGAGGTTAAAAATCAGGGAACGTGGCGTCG` , state whether its PBM binding z-score is greater than or equal to 1.
1

====

test system: PPARg:RXRa DBDmut IVT, anti-RXR (DBD mutation: RXRa K156A/R161A, NR concentration 270 nM, RXRa partner concentration 90 nM); test: PBM binding z-score (relative to random genomic background probes); higher = stronger binding; sequences stand for … in GC…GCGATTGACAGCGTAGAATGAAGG
Everything with PBM binding z-score lower than 2 is -1; everything else, including exactly 2, is 1.

Textbook exercise: given the entry `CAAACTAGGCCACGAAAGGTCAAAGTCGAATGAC` , state whether its PBM binding z-score is greater than or equal to 2.
1

Textbook exercise: given the entry `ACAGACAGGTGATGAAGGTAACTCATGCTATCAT` , state whether its PBM binding z-score is greater than or equal to 2.
-1

Textbook exercise: given the entry `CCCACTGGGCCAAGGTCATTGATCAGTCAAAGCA` , state whether its PBM binding z-score is greater than or equal to 2.
1

Textbook exercise: given the entry `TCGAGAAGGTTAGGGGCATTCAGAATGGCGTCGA` , state whether its PBM binding z-score is greater than or equal to 2.
-1

Textbook exercise: given the entry `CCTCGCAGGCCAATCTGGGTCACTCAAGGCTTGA` , state whether its PBM binding z-score is greater than or equal to 2.
1

Textbook exercise: given the entry `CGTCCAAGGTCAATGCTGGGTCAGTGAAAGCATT` , state whether its PBM binding z-score is greater than or equal to 2.
1

Textbook exercise: given the entry `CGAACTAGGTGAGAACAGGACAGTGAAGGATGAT` , state whether its PBM binding z-score is greater than or equal to 2.
1

Textbook exercise: given the entry `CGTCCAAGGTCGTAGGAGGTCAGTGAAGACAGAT` , state whether its PBM binding z-score is greater than or equal to 2.
-1

Textbook exercise: given the entry `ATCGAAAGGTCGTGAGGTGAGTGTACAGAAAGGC` , state whether its PBM binding z-score is greater than or equal to 2.
-1

Textbook exercise: given the entry `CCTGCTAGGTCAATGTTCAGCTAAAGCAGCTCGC` , state whether its PBM binding z-score is greater than or equal to 2.
1

Textbook exercise: given the entry `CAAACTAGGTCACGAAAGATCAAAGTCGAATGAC` , state whether its PBM binding z-score is greater than or equal to 2.
1

Textbook exercise: given the entry `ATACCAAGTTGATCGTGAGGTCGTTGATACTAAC` , state whether its PBM binding z-score is greater than or equal to 2.
-1

Textbook exercise: given the entry `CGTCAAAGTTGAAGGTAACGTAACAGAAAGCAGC` , state whether its PBM binding z-score is greater than or equal to 2.
-1

Textbook exercise: given the entry `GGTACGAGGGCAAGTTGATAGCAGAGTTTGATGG` , state whether its PBM binding z-score is greater than or equal to 2.
1

Textbook exercise: given the entry `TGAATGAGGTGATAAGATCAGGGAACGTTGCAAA` , state whether its PBM binding z-score is greater than or equal to 2.
-1

Textbook exercise: given the entry `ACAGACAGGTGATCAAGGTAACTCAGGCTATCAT` , state whether its PBM binding z-score is greater than or equal to 2.
-1

Textbook exercise: given the entry `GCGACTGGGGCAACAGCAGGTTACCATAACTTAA` , state whether its PBM binding z-score is greater than or equal to 2.
1

Textbook exercise: given the entry `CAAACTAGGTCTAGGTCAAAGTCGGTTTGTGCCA` , state whether its PBM binding z-score is greater than or equal to 2.
1

Textbook exercise: given the entry `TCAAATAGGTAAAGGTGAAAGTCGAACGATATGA` , state whether its PBM binding z-score is greater than or equal to 2.
1

Textbook exercise: given the entry `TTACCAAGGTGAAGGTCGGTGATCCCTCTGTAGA` , state whether its PBM binding z-score is greater than or equal to 2.
-1

Textbook exercise: given the entry `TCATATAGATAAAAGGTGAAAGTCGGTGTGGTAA` , state whether its PBM binding z-score is greater than or equal to 2.
1

Textbook exercise: given the entry `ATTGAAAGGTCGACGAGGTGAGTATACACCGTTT` , state whether its PBM binding z-score is greater than or equal to 2.
-1

Textbook exercise: given the entry `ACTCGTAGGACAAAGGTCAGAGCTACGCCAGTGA` , state whether its PBM binding z-score is greater than or equal to 2.
-1

Textbook exercise: given the entry `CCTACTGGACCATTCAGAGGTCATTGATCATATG` , state whether its PBM binding z-score is greater than or equal to 2.
1

Textbook exercise: given the entry `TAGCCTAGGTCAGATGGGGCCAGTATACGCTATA` , state whether its PBM binding z-score is greater than or equal to 2.
-1

Textbook exercise: given the entry `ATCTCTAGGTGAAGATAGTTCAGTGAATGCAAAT` , state whether its PBM binding z-score is greater than or equal to 2.
1

Textbook exercise: given the entry `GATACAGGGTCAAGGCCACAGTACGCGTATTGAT` , state whether its PBM binding z-score is greater than or equal to 2.
1

Textbook exercise: given the entry `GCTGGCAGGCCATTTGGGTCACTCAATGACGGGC` , state whether its PBM binding z-score is greater than or equal to 2.
-1

Textbook exercise: given the entry `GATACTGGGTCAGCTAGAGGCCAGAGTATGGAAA` , state whether its PBM binding z-score is greater than or equal to 2.
1

Textbook exercise: given the entry `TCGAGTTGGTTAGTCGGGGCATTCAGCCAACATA` , state whether its PBM binding z-score is greater than or equal to 2.
-1

Textbook exercise: given the entry `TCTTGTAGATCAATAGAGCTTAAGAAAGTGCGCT` , state whether its PBM binding z-score is greater than or equal to 2.
-1

Textbook exercise: given the entry `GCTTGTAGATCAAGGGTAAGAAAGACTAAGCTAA` , state whether its PBM binding z-score is greater than or equal to 2.
-1

Textbook exercise: given the entry `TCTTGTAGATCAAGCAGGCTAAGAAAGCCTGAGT` , state whether its PBM binding z-score is greater than or equal to 2.
-1

Textbook exercise: given the entry `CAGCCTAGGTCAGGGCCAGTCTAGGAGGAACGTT` , state whether its PBM binding z-score is greater than or equal to 2.
-1

Textbook exercise: given the entry `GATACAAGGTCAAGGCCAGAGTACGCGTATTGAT` , state whether its PBM binding z-score is greater than or equal to 2.
1

Textbook exercise: given the entry `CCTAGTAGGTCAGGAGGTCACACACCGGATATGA` , state whether its PBM binding z-score is greater than or equal to 2.
1

Textbook exercise: given the entry `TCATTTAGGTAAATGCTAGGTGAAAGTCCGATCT` , state whether its PBM binding z-score is greater than or equal to 2.
1

Textbook exercise: given the entry `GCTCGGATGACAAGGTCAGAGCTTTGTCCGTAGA` , state whether its PBM binding z-score is greater than or equal to 2.
-1

Textbook exercise: given the entry `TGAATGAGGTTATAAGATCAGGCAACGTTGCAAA` , state whether its PBM binding z-score is greater than or equal to 2.
-1

Textbook exercise: given the entry `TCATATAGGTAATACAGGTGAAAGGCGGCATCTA` , state whether its PBM binding z-score is greater than or equal to 2.
1

Textbook exercise: given the entry `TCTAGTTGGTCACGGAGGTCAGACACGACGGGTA` , state whether its PBM binding z-score is greater than or equal to 2.
1

Textbook exercise: given the entry `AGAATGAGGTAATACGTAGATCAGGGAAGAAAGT` , state whether its PBM binding z-score is greater than or equal to 2.
1

Textbook exercise: given the entry `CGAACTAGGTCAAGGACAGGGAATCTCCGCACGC` , state whether its PBM binding z-score is greater than or equal to 2.
1

Textbook exercise: given the entry `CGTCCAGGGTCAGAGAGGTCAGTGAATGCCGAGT` , state whether its PBM binding z-score is greater than or equal to 2.
-1

Textbook exercise: given the entry `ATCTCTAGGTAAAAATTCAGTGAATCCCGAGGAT` , state whether its PBM binding z-score is greater than or equal to 2.
-1

Textbook exercise: given the entry `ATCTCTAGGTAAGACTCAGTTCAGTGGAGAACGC` , state whether its PBM binding z-score is greater than or equal to 2.
-1

Textbook exercise: given the entry `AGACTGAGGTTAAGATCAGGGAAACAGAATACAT` , state whether its PBM binding z-score is greater than or equal to 2.
-1

Textbook exercise: given the entry `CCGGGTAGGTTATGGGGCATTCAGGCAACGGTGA` , state whether its PBM binding z-score is greater than or equal to 2.
-1

Textbook exercise: given the entry `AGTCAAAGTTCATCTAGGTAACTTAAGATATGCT` , state whether its PBM binding z-score is greater than or equal to 2.
-1
